Assayed System: NADPH oxidase 4 (Homo sapiens)
Experimental Protocol: NOX4-dependent H2O2 signal modulators, primary screen, NOX inhibitor project, cell-based, HEK293-NOX4, tetracycline-induced, Amplex Red fluorescence (AID 1160)
Condition Details: 45 min, higher = more signal, called active from +8 up or from −8 down
Calls of active or inactive are those of the source.
Readout Name: z-score

Look over these answered cases.
Query Smiles	z-score
CCN1C(C)=C(C(=O)OC)[C@@H](c2ccccc2)N2C(=O)[C@](O)(C(=O)OC)[C@@H](c3ccccc3)C(C(C)=O)=C12	-0.585 (inactive)
COCCOC(=O)N1C(=O)[C@@]2(c3cc(C#CC4=CCCCC4)ccc31)[C@H](C(=O)NC[C@H](O)c1ccccc1)[C@H]1C(=O)O[C@H](c3ccccc3)[C@H](c3ccccc3)N1[C@@H]2c1ccccc1OCCO	0.911 (inactive)
[N-]=[N+]=NCc1ccccc1C[C@@]1(C(=O)N2CCOCC2)N=C(c2ccc(OCCCO)cc2)O[C@@H]1c1ccccc1N=[N+]=[N-]	0.897 (inactive)
C[C@@H]1CC[C@H]2C(=O)N3[C@@H](CC[C@@H](C)[C@@H]3c3cccc(N4CCOCC4)c3)C(=O)N2[C@H]1c1cccc(Br)c1	0.815 (inactive)
CCOC(=O)[C@H]1C/C=C/C[C@H](C(=O)OCC)C(=O)O[C@H]2[C@@H](OC)O[C@H](CO)[C@@H](OC(=O)Nc3ccc(Br)cc3)[C@@H]2OC1=O	-0.759 (inactive)

Prompt: Can you look up z-score on NADPH oxidase 4 (Homo sapiens) for C=C(CCCC)C(=O)CC[C@@H](OC(=O)c1cccnc1)c1cccc(OCCO)c1 ?
Response: 0.849 (inactive)
